Data origin: PubChem BioAssay (NCI)

Assay Info: NCI Yeast Anticancer Drug Screen. Data for the mlh1 rad18 strain (AID 175)
Condition Description: S. cerevisiae mlh1 rad18 strain growth inhibition; at 50.0 µM
The panel holds about 79,000 compounds, 15% with a hit somewhere; the sample as a whole holds those more often. The source made the active and inactive calls. Rule as the data show it: active = growth inhibition above about 70%; inactive = the rest.
Result category, one only: YES = active, NO = inactive

[
  {
    "Molecule": "N.N.N.N.O=C([O-])CCl.O=C([O-])CCl.[Co+3].[O-][Cl+3]([O-])([O-])[O-]",
    "Assigned Class": "NO"
  }
]

Give the logged outcome of this assay for the following molecule: FC(F)(F)[S-].FC(F)(F)[S-].[C-]#[O+].[C-]#[O+].[C-]#[O+].[C-]#[O+].[C-]#[O+].[C-]#[O+].[C-]#[O+].[C-]#[O+].[Mn].[Mn]
YES

How about this molecule: O=NN1CCN(N=O)CC1
NO

How about this molecule: C1C[OH+]CC[OH+]CC[OH+]CC[OH+]CC[OH+]1.[Cl-].[V]
NO

How about this molecule: COc1cc(C)c(C(CC(=O)O)CC(=O)N(CCCl)CCCl)cc1C(C)C (stereo not drawn)
NO

How about this molecule: CC(C)N(C(C)C)P(OCCC#N)OC1CC(n2cnc3c(=O)[nH]cnc32)OC1COC(=O)NCCCCCCNC(=O)OC(C)(C)c1ccc(-c2ccccc2)cc1 (stereo not drawn)
NO

How about this molecule: O=P1(c2ccccc2)CCCCN1 (stereo not drawn)
NO

How about this molecule: NS(=O)(=O)CC1CC[CH-]CC1.[Cl-].[Cl-].[Cl-].[Cl-].[Cl-].[Sb+5].c1ccncc1
NO

How about this molecule: CC(C)NC(=O)N1C2C3CCC(C)(OC3(C)C)C21 (stereo not drawn)
NO

How about this molecule: CCCCOP(O)(=S)OCCCC.[Tb]
NO

How about this molecule: C=C1C(=O)OC2/C=C(\C)CC/C=C(/C)CC(OC(=O)/C(=C/CO)CO)C12 (stereo not drawn)
NO

How about this molecule: CN(C)c1ccc(N=Nc2ccc([As](=O)(O)O)cc2)cc1
NO

How about this molecule: O=C1C(NCC(O)CO)=C(N2CC2)C(=O)C(NCC(O)CO)=C1N1CC1 (stereo not drawn)
NO

How about this molecule: O=C1NCN(c2ccccc2)C12CCN(CCCS(=O)(=O)c1ccccc1)CC2
NO

How about this molecule: CCC(C#N)N1CC1 (stereo not drawn)
NO

How about this molecule: O=C(NN=C1CCN(Cc2ccccc2)CC1)C(O)(c1ccccc1)c1ccccc1
NO

----------
Assay Info: NCI Yeast Anticancer Drug Screen. Data for the rad50 strain (AID 155);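 also: 0% = growth of vehicle-only cultures of the same strain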
Condition Description: S. cerevisiae rad50 strain growth inhibition; at 50.0 µM; hits give high values
The panel holds about 79,000 compounds, 15% with a hit somewhere; the sample as a whole holds those more often.
Recorded Endpoint: growth inhibition (%)
The reply should contain only the number, in %.

[
  {
    "Molecule": "CN(C(=O)COc1ccc([N+](=O)[O-])cc1Cl)c1ccc(S(=O)(=O)F)cc1",
    "Unit Annotation": "%",
    "growth inhibition": 13.8
  }
]

Name the reported growth inhibition value associated with the molecule C/C=C(\C)C1(CC)C(=O)NC(=O)N(C)C1=O (configuration not stated)
1.65

How about this molecule: C=C[C](=C)[Pb]([CH2]C)([CH2]C)[CH2]C
-7.3

How about this molecule: O=[Se](=O)(O)O
-45

How about this molecule: CCCCCCN(CCCCCC)C1C=CCCC1 (configuration not stated)
-5.4

How about this molecule: COC(=O)C1C(C)N1P(=O)(OC)OC (configuration not stated)
7.3

How about this molecule: CCN1C(=O)C(C)C(=O)N(C)C1=O (configuration not stated)
-33.6
